Data provenance is patent US6756382B2.

Property: melting point; scope: individual compounds

COCCc1nc2c(N)nc3ccccc3c2n1CCCCNC(=O)c1cc2ccccc2cn1 [Example 181] | 199 to 200 °C

Lab note: measured melting point of Nc1nc2ccccc2c2c1ncn2CCCCNC(=O)c1ccc(C(=O)c2ccccc2)cc1 [Example 20] was 159 to 161 °C

Lab note: measured melting point of CCCCc1ccc(C(=O)NCCCCn2c(CCOC)nc3c(N)nc4ccccc4c32)nc1 [Example 58] was 54.9 to 55.2 °C

Lab note: measured melting point of CCCCc1nc2c(N)nc3ccccc3c2n1CCCCNC(=O)CCCCC1SCC2NC(=O)NC21 (centres unmarked) [Example 24] was 214 to 215 °C

Lab note: measured melting point of Cc1nc2c(N)nc3ccccc3c2n1CCCCNC(=O)C1CCCC1 [Example 201] was 168.6 to 169.8 °C

* * *

MEASURED_PARAMETER: melting point

Solved cases (4 shown):
Nc1nc2ccccc2c2c1ncn2CCCCNC(=O)c1ccc2ccccc2c1 [Example 43] | 257 °C (dec.)
Nc1nc2ccccc2c2c1ncn2CCCCNC(=O)c1ccc(Cn2c(N3CCCC3)nc3ccccc32)cc1 [Example 8] | 150 to 153 °C
CCc1nc2c(N)nc3ccccc3c2n1CCCCNC(=O)C1CCCC1 [Example 197] | 178.6 to 179.5 °C
Nc1nc2ccccc2c2c1ncn2CCCCNC(=O)CCCCOc1ccc2[nH]c(=O)[nH]c2c1 [Example 19] | 150 to 157 °C

Lab note: measured melting point of COCCc1nc2c(N)nc3ccccc3c2n1CCCCCCCCNC(=O)c1ccccc1 [Example 187] was 133.4 to 137.5 °C

Lab note: measured melting point of CCCCc1nc2c(N)nc3ccccc3c2n1CCNC(=O)CCCCC1SCC2NC(=O)NC21 (centres unmarked) [Example 28] was 124 to 126 °C

Lab note: measured melting point of CC(Oc1ccccc1)C(=O)NCCCCn1cnc2c(N)nc3ccccc3c21 (centres unmarked) [Example 41] was 85 to 87.5 °C

* * *

Counter-ions that a name gives are not always drawn.
MEASURED_PARAMETER: melting point

CCCC(=O)NCCCn1c(C)nc2c(N)nc3ccccc3c21 | 221.8 to 223.3 °C

Lab note: measured melting point of COCCc1nc2c(N)nc3ccccc3c2n1CCCNC(=O)c1ccccc1 was 183 to 186 °C

Lab note: measured melting point of CC(C(=O)NCCCCn1cnc2c(N)nc3ccccc3c21)c1ccc(-c2ccccc2)c(F)c1 (centres unmarked) was 76.1 to 79.9 °C

Lab note: measured melting point of Cc1nc2c(N)nc3ccccc3c2n1CCCCNC(=O)C(C)C was 159.7 to 160.7 °C

Lab note: measured melting point of CCCc1nc2c(N)nc3ccccc3c2n1CCCCNC(=O)c1ccccc1 was 173 to 174 °C

Lab note: measured melting point of CCCC(=O)NCCCCn1c(C)nc2c(N)nc3ccccc3c21 was 169.4 to 170.5 °C

Lab note: measured melting point of CCCCC(CC)C(=O)NCCCCn1cnc2c(N)nc3ccccc3c21 (centres unmarked) was 163 to 164 °C

Lab note: measured melting point of Cc1nc2c(N)nc3ccccc3c2n1CCCNC(=O)C1CCCCC1 was 234.4 to 235.4 °C

Lab note: measured melting point of Nc1nc2ccccc2c2c1ncn2CCCCNC(=O)c1ccc(N2CCOCC2)nc1 was 160 to 170 °C (dec.)

Lab note: measured melting point of Nc1nc2ccccc2c2c1ncn2CCCCNC(=O)c1ccc(OCC(F)(F)F)nc1 was 192 to 194 °C (dec.)

Lab note: measured melting point of CCOCc1nc2c(N)nc3ccccc3c2n1CCNC(=O)CCCCC1SCC2NC(=O)NC21 (centres unmarked) (as salt: trifluoroacetate) [Example 29, Ditrifluoroacetate] was 171 to 175 °C

Lab note: measured melting point of Nc1nc2ccccc2c2c1ncn2CCCCNC(=O)c1ccccc1Oc1ccccc1 was 93 to 94 °C

Lab note: measured melting point of Nc1nc2ccccc2c2c1ncn2CCCCNC(=O)c1ccc2ncccc2c1 was 122 to 127 °C

Lab note: measured melting point of Nc1nc2ccccc2c2c1ncn2CCCNC(=O)c1ccccc1 (as salt: hydrochloride) was 265 to 270 °C

Lab note: measured melting point of COCCc1nc2c(N)nc3ccccc3c2n1CCCCNC(=O)c1cnc2ccccc2n1 was 85 to 87 °C

Lab note: measured melting point of CCCCc1nc2c(N)nc3ccccc3c2n1CCCCCCCCNC(=O)c1ccccc1 was 149.5 to 151.3 °C

* * *

Structures can show the parent of a compound that is named as a salt.
Property: melting point; scope: individual compounds

Solved cases (3 shown):
COCCc1nc2c(N)nc3c(c2n1CCCNC(=O)c1ccccc1)CCCC3 | 167.8 to 169.6 °C
Nc1nc2ccccc2c2c1ncn2CCNC(=O)CCCCC1SCC2NC(=O)NC21 (stereo not drawn) | 169 °C
Nc1nc2ccccc2c2c1ncn2CCCCNC(=O)c1ccncc1 | 213 to 213.7 °C

Lab note: measured melting point of Cc1nc2c(N)nc3ccccc3c2n1CCCNC(=O)C(C)C was 239 to 240.1 °C

Lab note: measured melting point of Nc1nc2ccccc2c2c1ncn2CCCCCNC(=O)c1ccccc1 (as salt: hydrochloride) was 217 to 219 °C

Lab note: measured melting point of Nc1nc2ccccc2c2c1ncn2CCCCNC(=O)COc1ccc(C(=O)c2ccccc2)cc1 was 73 to 98 °C

* * *

Property: melting point; scope: individual compounds

Solved cases (6 shown):
Nc1nc2ccccc2c2c1ncn2CCCCNC(=O)COc1ccccc1 | 61.5 °C (dec.)
Cc1nc2c(N)nc3ccccc3c2n1CCCCNC(=O)C1CCCCC1 | 191.6 to 192.6 °C
COCCc1nc2c(N)nc3ccccc3c2n1CCCCNC(=O)c1c[nH]c2ccccc12 | 225.5 to 227.4 °C
Nc1nc2ccccc2c2c1ncn2CCCCNC(=O)c1cccc(C(=O)c2ccccc2)c1 | 103 to 105 °C
Nc1nc2ccccc2c2c1ncn2CCCCNC(=O)c1cccc2cccnc12 | 91 to 93 °C
Cc1nc2c(N)nc3ccccc3c2n1CCCNC(=O)c1ccccc1 | 230 to 231.4 °C

Lab note: measured melting point of Nc1nc2ccccc2c2c1ncn2CCCCNC(=O)c1ccnc2ccccc12 was 214.5 to 215.2 °C

Lab note: measured melting point of Nc1nc2ccccc2c2c1ncn2CCCCNC(=O)c1ccc(-c2ccccc2)cc1 was 215.4 °C (dec.)

Lab note: measured melting point of CCOc1ccc2ccccc2c1C(=O)NCCCCn1cnc2c(N)nc3ccccc3c21 was 219 °C (dec.)

* * *

MEASURED_PARAMETER: melting point

CCc1nc2c(N)nc3ccccc3c2n1CCCCNC(=O)C(C)C | 155.4 to 156.3 °C
Nc1nc2ccccc2c2c1ncn2CCCCNC(=O)[C@H]1C[C@@H]1c1ccccc1 (relative stereo) | 77 °C
Nc1nc2ccccc2c2c1nc(-c1ccccc1)n2CCCCNC(=O)c1ccc2ccccc2n1 | 81.1 to 83.9 °C
Nc1nc2ccccc2c2c1ncn2CCCCNC(=O)c1ccc(Oc2ccccc2)cc1 | 90.5 to 91.5 °C

Lab note: measured melting point of Nc1nc2ccccc2c2c1ncn2CCNC(=O)CCc1ccccc1 was 254 to 256 °C

Lab note: measured melting point of N#Cc1ccc(C(=O)NCCCCn2cnc3c(N)nc4ccccc4c32)cc1 was 222.8 to 225.3 °C

Lab note: measured melting point of COCCc1nc2c(N)nc3ccccc3c2n1CC(C)(C)CNC(=O)c1ccccc1 was 103 to 125 °C

Lab note: measured melting point of N#Cc1ccc(C(=O)NCCCCn2cnc3c(N)nc4ccccc4c32)cn1 was 125 to 129 °C

Lab note: measured melting point of COCCc1nc2c(N)nc3ccccc3c2n1CCCCNC(=O)c1cnc2ccccc2c1 was 114 to 116 °C

Lab note: measured melting point of COCCc1nc2c(N)nc3ccccc3c2n1CCCNC(=O)c1cc2ccccc2cn1 was 198 to 198.5 °C

Lab note: measured melting point of COCCc1nc2c(N)nc3ccccc3c2n1CCCCNC(=O)c1ccc2ccccc2n1 was 78.1 to 79.9 °C

Lab note: measured melting point of COCCc1nc2c(N)nc3ccccc3c2n1CCCCNC(=O)c1nccc2ccccc12 was 61 to 63 °C

Lab note: measured melting point of Nc1nc2ccccc2c2c1ncn2CCCCNC(=O)c1ccc(Cl)nc1 was 144 to 148 °C (dec.)

Lab note: measured melting point of Nc1nc2ccccc2c2c1ncn2CCCCCCNC(=O)c1ccccc1 was 146 to 155 °C

Lab note: measured melting point of N#Cc1cccc(C(=O)NCCCCn2cnc3c(N)nc4ccccc4c32)c1 was 200 to 201 °C (dec.)

Lab note: measured melting point of CCCCCSc1ncccc1C(=O)NCCCCn1cnc2c(N)nc3ccccc3c21 was 158 to 161 °C

Lab note: measured melting point of Nc1nc2ccccc2c2c1nc(CCCOc1ccccc1)n2CCCNC(=O)c1ccc(Br)cc1 was 186.2 to 186.7 °C

Lab note: measured melting point of Nc1nc2ccccc2c2c1ncn2CCCCNC(=O)c1cccc(Oc2ccccc2)c1 was 105 to 107 °C

Lab note: measured melting point of Cl.Nc1nc2ccccc2c2c1ncn2CCCCNC(=O)c1ccccc1.O (hydrate or solvate) was 254 to 256 °C
